# measurementProtocol: HDN33 neuroblastoma growth inhibition, cell-based, chromothripsis tumors, cisplatin or BGB combos (AID 1671450);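 note: cells exposed to compound for four days; 0% = vehicle DMSO and 100% = cell killing by high DMSO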
# assaySetup: HDN33 neuroblastoma cells, BGB combo, at 5 µM, stronger effect = higher value
Entries and their inhibition values follow.

As a guide, the following entries are already answered.
* CN1CCN(c2c(F)cc3c(=O)c(C(=O)O)cn4c3c2OCN4C)CC1 | 5.71%
* O=c1cc[nH]c(=O)[nH]1 | -47.9%
* CN1C[C@@H]2C[C@H]1CN2c1cc2c(cc1F)c(=O)c(C(=O)O)cn2C1CC1 | -34.1%
* O=C(CCCCCCC(=O)Nc1ccccc1)NO | 92.3%

**Q:** Return the recorded inhibition value; entry: CNC1CCCN(c2c(F)cc3c(=O)c(C(=O)O)cn(C4CC4)c3c2OC)C1 (stereo not given)
**A:** -29.7%

**Q:** Return the recorded inhibition value; entry: Cc1ccc2nc(N)[nH]c(=O)c2c1Sc1ccncc1
**A:** 21.4%

**Q:** Return the recorded inhibition value; entry: Nc1ccc2cc3ccc(N)cc3nc2c1
**A:** 96.4%

**Q:** Return the recorded inhibition value; entry: CN1CCN(c2c(F)cc3c(=O)c(C(=O)O)cn(CCF)c3c2F)CC1
**A:** 17.4%

**Q:** Return the recorded inhibition value; entry: C[C@@H](CN1CC(=O)NC(=O)C1)N1CC(=O)NC(=O)C1
**A:** 79.1%

**Q:** Return the recorded inhibition value; entry: O=c1[nH]c(=O)n([C@H]2C[C@H](O)[C@@H](CO)O2)cc1Br
**A:** 11.2%

====

# measurementProtocol: growth inhibition of DIPG glioma cells, dose response, cell-based, SU-DIPG-IV, MIPE4.0, CellTiter-Glo, qHTS (AID 1347063);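 note: compound exposure lasted 48 hours before the viability readout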
# assaySetup: SU-DIPG-IV viability, CellTiter-Glo ATP luminescence
Records with an inconclusive call do not appear. The source made the active and inactive calls. Cut-off not given; nearly all actives show AC50 up to about 30 µM.
Respond with a class label; see active, inactive

Previously resolved entries follow.
- O=c1[nH]c(=O)n([C@H]2C[C@H](O)[C@@H](CO)O2)cc1I: inactive
- CCCCCCCCOc1ccccc1C(=O)Nc1ccc(C(=O)OCC[N+](C)(CC)CC)cc1: active
- CC1(C)[C@@H](O[C@H]2O[C@H](C(=O)O)[C@@H](O)[C@H](O)[C@H]2O[C@@H]2O[C@H](C(=O)O)[C@@H](O)[C@H](O)[C@H]2O)CC[C@]2(C)[C@H]3C(=O)C=C4[C@@H]5C[C@@](C)(C(=O)O)CC[C@]5(C)CC[C@@]4(C)[C@]3(C)CC[C@@H]12: inactive
- C[C@@H](NCCCc1cccc(C(F)(F)F)c1)c1cccc2ccccc12: inactive

**Q:** What is the recorded call for this compound in the test? COc1cccc2c1C(=O)c1c(O)c3c(c(O)c1C2=O)C[C@@](O)(C(C)=O)C[C@@H]3O[C@H]1C[C@H](N)[C@H](O)[C@H](C)O1
**A:** active

====

# measurementProtocol: rescue of polyQ-huntingtin neuronal dysfunction in worms, whole organism, C. elegans mechanosensory neurons, N-terminal huntingtin (AID 1599)
# assaySetup: touch response, stronger effect = higher value
Results with a measured potency or affinity are listed apart.
measure: rescue above control

As a guide, the following entries are already answered.
- C1N2CN3CN1CN(C2)C3: -6.88
- CC/C(=C(\c1ccccc1)c1ccc(OCCN(C)C)cc1)c1ccccc1: 2.54
- CC(C)=CCC1=C(O)c2ccccc2C(=O)C1=O: 6.74
- NC(=O)c1ccc[n+]([C@@H]2O[C@H](COP(=O)([O-])OP(=O)(O)OC[C@H]3O[C@@H](n4cnc5c(N)ncnc54)[C@H](O)[C@@H]3O)[C@@H](O)[C@H]2O)c1: 2.62
- Nc1ncnc2c1ncn2[C@@H]1O[C@H](CO)[C@@H](O)[C@@H]1O: -14.3
- CC(=O)NCCc1c[nH]c2ccc(O)cc12: 2.04

**Q:** Return the recorded rescue above control value; entry: CCOC(=O)CCCCCCCCCCCCC1C=CCC1 (stereo not given)
**A:** -1.18

**Q:** Return the recorded rescue above control value; entry: CN(C)C(=O)C(CCN1CCC(O)(c2ccc(Cl)cc2)CC1)(c1ccccc1)c1ccccc1
**A:** 1.56

**Q:** Return the recorded rescue above control value; entry: CC(C)=CCC/C(C)=C/CO
**A:** 3.94

**Q:** Return the recorded rescue above control value; entry: Cn1c(=O)[nH]c2ncn(C)c2c1=O
**A:** -11.3

**Q:** Return the recorded rescue above control value; entry: NC(N)=O
**A:** 4.79

**Q:** Return the recorded rescue above control value; entry: CC(=O)NC(Cc1ccccc1)C(=O)O (stereo not given)
**A:** 4.38

**Q:** Return the recorded rescue above control value; entry: CC(C)NCC(O)COc1cccc2[nH]ccc12 (stereo not given)
**A:** 3.36

**Q:** Return the recorded rescue above control value; entry: O=C(O)c1cn(C2CC2)c2cc(N3CCNCC3)c(F)cc2c1=O
**A:** 13.4

**Q:** Return the recorded rescue above control value; entry: OCc1ccccc1O[C@@H]1O[C@H](CO)[C@@H](O)[C@H](O)[C@H]1O
**A:** -13.2

**Q:** Return the recorded rescue above control value; entry: O=c1c(-c2ccc(O)cc2)coc2cc(O)ccc12
**A:** 2.42

**Q:** Return the recorded rescue above control value; entry: C=NC(C(=O)NC1C(=O)N2C1SC(C)(C)C2C(=O)O)c1ccccc1 (stereo not given)
**A:** -2.5

====

Entries and their glutamate uptake change values follow.
# measurementProtocol: enhancers of glutamate uptake in motor neurons, MN-1 cell line (AID 1612);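 note: tested at 1 µM final; 0% = mean of DMSO vehicle wells on each plate; positive means more glutamate uptake than control and negative means less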
# assaySetup: MN-1 motor neuron cells, stronger effect = higher value
Give the quantity in %, number only.

As a guide, the following entries are already answered.
* CN1C(=O)CC[C@H]1c1cccnc1 | 11.3
* COc1ccc([C@@H]2CC(=O)c3c(O)cc(O)cc3O2)cc1O | 0
* O=C(O)c1cn(C2CC2)c2cc(N3CCNCC3)c(F)cc2c1=O | -1.59
* NC(N)=O | -1.11
* CC12CCC(CC1)C(C)(C)O2 | -6.04
* C[N+](C)(C)CCO | 11.9

**Q:** Return the recorded glutamate uptake change value; entry: COc1c2ccoc2cc2oc(=O)ccc12
**A:** -26.6

**Q:** Return the recorded glutamate uptake change value; entry: C=C1c2c(Cl)ccc(O)c2C(O)=C2C(=O)[C@]3(O)C(O)=C(C(N)=O)C(=O)[C@@H](N(C)C)[C@@H]3[C@@H](O)[C@H]12
**A:** 0.44

**Q:** Return the recorded glutamate uptake change value; entry: CC1CCCC(C)N1NC(=O)c1ccc(Cl)c(S(N)(=O)=O)c1 (stereo unspecified)
**A:** -0.09

**Q:** Return the recorded glutamate uptake change value; entry: CCOc1ccccc1OCC1CNCCO1 (stereo unspecified)
**A:** 20.1

**Q:** Return the recorded glutamate uptake change value; entry: CN1C[C@H](C(=O)N[C@]2(C)O[C@@]3(O)[C@@H]4CCCN4C(=O)[C@H](Cc4ccccc4)N3C2=O)C[C@@H]2c3cccc4[nH]cc(c34)C[C@H]21
**A:** 15.4

====

# measurementProtocol: sensitizers of A549 cells to miR-34 induction, primary screen, imaging, A549 dox-inducible miR-34, nuclei and caspase counts (AID 1347080)
# assaySetup: A549 miR-34 inducible, Hoechst nuclei count, 48 h; stronger effect = lower value; cell number ratio, induced over uninduced
The source made the active and inactive calls.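 How the source made its calls: active means compounds whose cell count with miR-34 switched on is under 0.7 times the count with it off; inactive means the rest.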
measure: fold change

As a guide, the following entries are already answered.
• CC(C)OC(=O)c1cc2c(OCC(O)CNC(C)(C)C)cccc2[nH]1 (stereo not given) = 0.915 (inactive)
• COc1ccccc1N1CCN(CCCCNC(=O)c2ccc(-c3ccc(C(C)=O)cc3)cc2)CC1 = 0.929 (inactive)
• CC1(C)CC1C(=O)NC(=CCCCCSCC(N)C(=O)O)C(=O)O (stereo not given) = 0.936 (inactive)
• CCOC(=O)c1c(C)n(C)c2ccc(O)cc12 = 0.886 (inactive)
• OC1C(O)C(O)C(O)C(O)C1O (stereo not given) = 0.895 (inactive)
• CC(C)(C)C(=O)OCOC(=O)[C@@H]1N2C(=O)[C@@H](NC(=O)[C@H](N)c3ccccc3)[C@H]2SC1(C)C = 0.926 (inactive)
• O=S1(=O)c2cccc3cccc(c23)N1CCCN1CCN(c2ccc(F)cc2)CC1 = 0.902 (inactive)
• CCN(CC)C(=O)/C(C#N)=C/c1cc(O)c(O)c([N+](=O)[O-])c1 = 0.873 (inactive)

**Q:** Return the recorded fold change value; entry: CCN1C(=O)NC(c2ccccc2)C1=O (stereo not given)
**A:** 0.858 (inactive)

**Q:** Return the recorded fold change value; entry: CCC[C@@H]1C[C@@H](C(=O)N[C@@H]([C@H]2O[C@H](SC)[C@H](O)[C@@H](O)[C@H]2O)[C@@H](C)O)N(C)C1
**A:** 0.837 (inactive)

The reported numbers originate from PubChem BioAssay.
